Attribution: PubChem BioAssay AID743171

measurement.target: 15-hydroxyprostaglandin dehydrogenase [NAD(+)] (Homo sapiens) (UniProt P15428)
Sequence (P15428 whole entry, looked up): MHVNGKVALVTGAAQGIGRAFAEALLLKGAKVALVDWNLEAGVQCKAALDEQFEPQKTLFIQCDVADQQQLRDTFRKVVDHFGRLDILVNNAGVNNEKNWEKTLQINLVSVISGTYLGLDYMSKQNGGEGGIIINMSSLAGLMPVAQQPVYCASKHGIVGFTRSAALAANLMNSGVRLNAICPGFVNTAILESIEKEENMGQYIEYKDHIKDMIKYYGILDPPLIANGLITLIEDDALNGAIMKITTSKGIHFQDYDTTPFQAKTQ
test.protocol: Extended Characterization of HPGD Inhibitors: Activity in Primary Assay (HPGD)
cond: recombinant HPGD, NADH fluorescence, PGE2 substrate; series mostly up to 57.1 µM
Description: The central role of HPGD is to inactivate prostaglandins such as prostaglandin E2 (PGE2) or prostaglandin D2 (PGD2). […] An increase in the fluorescence intensity due to conversion of NAD+ to NADH was used to measure the enzyme activity. […] Three uL of enzyme (20 nM final concentration) were dispensed to 1536-well Greiner black solid bottom plates. […] The fluorescence intensity difference between the last and the first time points, normalized against controls, was used to compute reaction progress.
Results filed as inconclusive are left out. Activity calls are given as the source filed them. Calls follow the shape of the dose curve; as a rule, active = well fitted inhibition curve with a large enough effect; inconclusive = small, poorly fitted or top-dose-only effect; inactive = flat fitted curve, though single readings scatter.
quantity.measured: Potency

> print(dat)
                           substance.smiles   recorded.result
1  O=C(c1ccc2c(c1)ncn2-c1cccc(C(F)(F)F)c1)N1CCCCC1  48.2 nM (active)

### Prompt Missing value: Potency, 15-hydroxyprostaglandin dehydrogenase [NAD(+)] (Homo sapiens) (UniProt P15428), entry Cc1cc(-c2nnc3n2CCCCC3)c(C)n1-c1cccc(Cl)c1 . Fill in?
### Response 34.1 nM (active)

### Prompt Same question, O=[N+]([O-])c1cccc(CSc2nc3ncc(Br)cc3[nH]2)c1 this time
### Response 68.1 nM (active)

### Prompt Same question, Cc1cccc(-n2cnc3cc(C(=O)N4CCCC(C)(C)C4)ccc32)c1 this time
### Response 68.1 nM (active)

### Prompt Same question, O=C(c1ccc2c(c1)ncn2-c1ccc(C(F)(F)F)cc1)N1CCCCC1 this time
### Response 85.7 nM (active)

---

measurement.target: 15-hydroxyprostaglandin dehydrogenase [NAD(+)] (Homo sapiens)
test.protocol: Extended Characterization of HPGD Inhibitors: Activity in Primary Assay (HPGD)
cond: recombinant HPGD, NADH fluorescence, PGE2 substrate; series mostly up to 57.1 µM
Records with an inconclusive call do not appear. Active and inactive are the calls of the source. The call rests on the fitted dose curve; in most records, active means well fitted inhibition curve with a large enough effect; inconclusive means small, poorly fitted or top-dose-only effect; inactive means flat fitted curve, though single readings scatter.
Property: Potency; scope: individual compounds

> print(dat)
                           substance.smiles    recorded.result
1  Cc1cc(-c2nnc3n2CCCCC3)c(C)n1-c1ccc(F)cc1  0.121 µM (active)

We next turn to a different compound, shown below.
### Prompt Missing value: Potency, 15-hydroxyprostaglandin dehydrogenase [NAD(+)] (Homo sapiens), entry CCOC(=O)c1ccc(-n2cnc3cc(C(=O)N4CCCCC4)ccc32)cc1 . Fill in?
### Response 0.0136 µM (active)

---

measurement.target: 15-hydroxyprostaglandin dehydrogenase [NAD(+)] (Homo sapiens) (UniProt P15428)
test.protocol: Extended Characterization of HPGD Inhibitors: Activity in Primary Assay (HPGD)
cond: recombinant HPGD, NADH fluorescence, PGE2 substrate; series mostly up to 57.1 µM
Inconclusive results are not listed. Active and inactive are the calls of the source. Calls come from the whole dose curve; as a rule, active = well fitted inhibition curve with a large enough effect; inconclusive = small, poorly fitted or top-dose-only effect; inactive = flat fitted curve, though single readings scatter.
Bench note: report the call from true for active, false for inactive

Consider the worked cases shown below.
> print(dat)
                                   molecule                        measurement.target  group.label
1  c1ccc(-n2cc(-c3nnc4n3CCCCC4)c3ccccc32)cc1  15-hydroxyprostaglandin dehydrogenase [NAD(+)] (Homo sapiens) (UniProt P15428)         true
2  Cc1cc(-c2nnc3n2CCCCC3)c(C)n1-c1ccc(Cl)c(Cl)c1  15-hydroxyprostaglandin dehydrogenase [NAD(+)] (Homo sapiens) (UniProt P15428)         true
3  Cc1cc(-c2nnc3n2CCCCC3)c(C)n1-c1ccc([N+](=O)[O-])cc1  15-hydroxyprostaglandin dehydrogenase [NAD(+)] (Homo sapiens) (UniProt P15428)         true
4  Cc1cccc(-n2cnc3cc(C(=O)N4CCCC(C(F)(F)F)C4)ccc32)c1 (stereo not drawn)  15-hydroxyprostaglandin dehydrogenase [NAD(+)] (Homo sapiens) (UniProt P15428)         true

### Prompt Returns: the outcome recorded for Cc1ccc(-n2cnc3cc(C(=O)N4CCCCC4)ccc32)cc1 in this assay.
### Response true

### Prompt Same question, COc1ccccc1-n1cnc2cc(C(=O)N3CCCCC3)ccc21 this time
### Response true

### Prompt Same question, Clc1cccc(CSc2nc3ncc(Br)cc3[nH]2)c1 this time
### Response true

### Prompt Same question, Cc1cc(-c2nnc3n2CCCCC3)c(C)n1-c1ccc(C(F)(F)F)cc1 this time
### Response true

### Prompt Same question, CCCCNC(=O)c1ccc2c(c1)ncn2-c1cccc(C)c1 this time
### Response true

### Prompt Same question, Brc1cnc2nc(SCc3ccccc3)[nH]c2c1 this time
### Response true

### Prompt Same question, CC(C)(C)c1ccc(CSc2nc3ncc(Br)cc3[nH]2)cc1 this time
### Response false

### Prompt Same question, FC(F)(F)c1ccc(-c2nc(-c3nnc4n3CCCCC4)c(C(F)(F)F)o2)cc1 this time
### Response false

### Prompt Same question, Brc1cnc2nc(SCc3ccncc3)[nH]c2c1 this time
### Response true

### Prompt Same question, Cc1cc(-c2nnc3n2CCCCC3)c(C)n1-c1cccc(C(F)(F)F)c1 this time
### Response true

### Prompt Same question, Cc1cccc(-n2cnc3cc(C(=O)N4CCCCCC4)ccc32)c1 this time
### Response true

### Prompt Same question, CCOC(=O)c1ccc(-n2c(C)cc(-c3nnc4n3CCCCC4)c2C)cc1 this time
### Response true

### Prompt Same question, Cc1cccc(-n2cnc3cc(C(=O)N4CCCC(C(C)C)C4)ccc32)c1 (stereo not drawn) this time
### Response true

### Prompt Same question, Cc1ccc(-n2c(C)cc(-c3nnc4n3CCCCC4)c2C)cc1 this time
### Response true

### Prompt Same question, c1ccc(-n2ccc(-c3nnc4n3CCCCC4)c2)cc1 this time
### Response true

### Prompt Same question, Cc1cc(-c2nnc3n2CCCCCCC3)c(C)n1-c1ccccc1 this time
### Response true

### Prompt Same question, COc1cccc(-n2cnc3cc(C(=O)N4CCCCC4)ccc32)c1 this time
### Response true

### Prompt Same question, Cc1cccc(-n2cnc3cc(C(=O)N4CCCC4)ccc32)c1 this time
### Response true

### Prompt Same question, CC(C)(C)c1ccc(-n2cnc3cc(C(=O)N4CCCCC4)ccc32)cc1 this time
### Response true

---

measurement.target: 15-hydroxyprostaglandin dehydrogenase [NAD(+)] (Homo sapiens)
test.protocol: Extended Characterization of HPGD Inhibitors: Activity in Primary Assay (HPGD)
cond: recombinant HPGD, NADH fluorescence, PGE2 substrate; series mostly up to 57.1 µM
Inconclusive results are not listed. Calls of active or inactive are those of the source. Calls follow the shape of the dose curve; as a rule, active = well fitted inhibition curve with a large enough effect; inconclusive = small, poorly fitted or top-dose-only effect; inactive = flat fitted curve, though single readings scatter.
quantity.measured: Potency

These recorded examples may help you get a feel for the data.
> print(dat)
                           substance.smiles                        measurement.target  quantity.measured     recorded.result
1       Cc1cc(-c2nnc3n2CCC3)c(C)n1-c1ccccc1  15-hydroxyprostaglandin dehydrogenase [NAD(+)] (Homo sapiens)            Potency    3.04 µM (active)
2  Cc1cccc(-n2cnc3cc(C(=O)N4CCC(C#N)CC4)ccc32)c1  15-hydroxyprostaglandin dehydrogenase [NAD(+)] (Homo sapiens)            Potency    19.2 µM (active)
3  Cc1cccc(-n2cnc3cc(C(=O)N4CCC(C(F)(F)F)CC4)ccc32)c1  15-hydroxyprostaglandin dehydrogenase [NAD(+)] (Homo sapiens)            Potency    1.52 µM (active)
4          CCCCn1cnc2cc(C(=O)N3CCCCC3)ccc21  15-hydroxyprostaglandin dehydrogenase [NAD(+)] (Homo sapiens)            Potency  0.0681 µM (active)

We next turn to a different compound, shown below.
### Prompt Entry under review: N#Cc1ccccc1CCc1nc2ncc(Br)cc2[nH]1 . Reported Potency?
### Response 19.2 µM (active)

---

measurement.target: 15-hydroxyprostaglandin dehydrogenase [NAD(+)] (Homo sapiens) (UniProt P15428)
test.protocol: Extended Characterization of HPGD Inhibitors: Activity in Primary Assay (HPGD)
cond: recombinant HPGD, NADH fluorescence, PGE2 substrate; series mostly up to 57.1 µM
Records with an inconclusive call do not appear. Calls of active or inactive are those of the source. The call rests on the fitted dose curve; in most records, active means well fitted inhibition curve with a large enough effect; inconclusive means small, poorly fitted or top-dose-only effect; inactive means flat fitted curve, though single readings scatter.
quantity.measured: Potency

### Prompt Entry under review: COc1ccc(CSc2nc3ncc(Br)cc3[nH]2)cc1F . Reported Potency?
### Response 85.7 nM (active)

### Prompt Same question, Cc1cc(-c2nnc3n2CCCCCC3)c(C)n1-c1ccccc1 this time
### Response 242 nM (active)

### Prompt Same question, O=C(c1ccc2c(c1)ncn2-c1cccc(Cl)c1)N1CCCCC1 this time
### Response 12.1 nM (active)

### Prompt Same question, O=C(c1ccc2c(c1)ncn2-c1ccc(Cl)cc1)N1CCCCC1 this time
### Response 21.5 nM (active)
